Target sequence: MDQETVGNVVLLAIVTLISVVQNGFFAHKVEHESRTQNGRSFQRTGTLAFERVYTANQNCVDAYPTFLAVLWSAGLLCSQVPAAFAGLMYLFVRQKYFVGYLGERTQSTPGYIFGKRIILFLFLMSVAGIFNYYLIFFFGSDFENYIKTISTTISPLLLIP
pIC50: −log10 of the molar value.
Readings of pIC50 for the listed compounds

[
  {
    "compound": "Cn1c(C(Cc2ccccc2)C(=O)O)c(S(C)(=O)=O)c2cc(OCc3ccccn3)ccc21 (centres unmarked)",
    "pIC50": "4.00 to 5.00"
  },
  {
    "compound": "CSc1c(C(Cc2ccccc2)C(=O)O)n(C)c2ccc(OCc3ccccn3)cc12 (centres unmarked)",
    "pIC50": "4.00 to 5.00"
  }
]
